experiment: The drug is tested on Ruminococcus lactaris strain: ATCC29176 for biotransformation. The drug concentrations were measured before and after a 12-h incubation by liquid-chromatography-coupled mass spectrometry (LC–MS); conditions: 2 µM
quantity.measured: Bacterial Biotransformation

COc1ccc2[nH]c([S+]([O-])Cc3ncc(C)c(OC)c3C)nc2c1 (centres undefined) ... Compound metabolized
CN(C)CCC=C1c2ccccc2COc2ccccc21 [DOXEPIN] ... Compound NOT metabolized
CCOC(=O)[C@H](CCc1ccccc1)N[C@@H](C)C(=O)N1[C@H](C(=O)O)C[C@@H]2CCC[C@@H]21 ... Compound NOT metabolized
Cc1ccc(-c2cc(C(F)(F)F)nn2-c2ccc(S(N)(=O)=O)cc2)cc1 ... Compound NOT metabolized
CN1CCN(CC/C=C2/c3ccccc3Sc3ccc(S(=O)(=O)N(C)C)cc32)CC1 ... Compound metabolized

Input: Which Bacterial Biotransformation is listed for O=C([O-])C[C@H](O)C[C@H](O)/C=C/c1c(C2CC2)nc2ccccc2c1-c1ccc(F)cc1.O=C([O-])C[C@H](O)C[C@H](O)/C=C/c1c(C2CC2)nc2ccccc2c1-c1ccc(F)cc1.[Ca+2] ?
Output: Compound NOT metabolized

Input: # repeat for Clc1ccc(Cn2c(CN3CCCC3)nc3ccccc32)cc1
Output: Compound NOT metabolized

Input: What about this compound? CC(C)(C)NC(=O)[C@H]1CC[C@H]2[C@@H]3CC[C@H]4NC(=O)C=C[C@]4(C)[C@H]3CC[C@]12C [FINASTERIDE]
Output: Compound NOT metabolized

Input: Item: Cc1cc2c(cc1S(N)(=O)=O)S(=O)(=O)CCC2
Output: Compound NOT metabolized

Input: Can you check CCCc1nn(C)c2c(=O)[nH]c(-c3cc(S(=O)(=O)N4CCN(C)CC4)ccc3OCC)nc12.O=C(O)CC(O)(CC(=O)O)C(=O)O [SILDENAFIL CITRATE] next?
Output: Compound NOT metabolized

Input: Next record, please: C=CCN1CC[C@]23c4c5ccc(O)c4O[C@H]2C(=O)CC[C@@]3(O)[C@H]1C5
Output: Compound NOT metabolized

###

assay: The drug is tested on Alistipes indistinctus strain: DSM22520 for biotransformation. The drug concentrations were measured before and after a 12-h incubation by liquid-chromatography-coupled mass spectrometry (LC–MS); settings: 2 µM
quantity.measured: Bacterial Biotransformation

// solved cases for Bacterial Biotransformation follow
CC(=O)Oc1ccc(C(c2ccc(OC(C)=O)cc2)c2ccccn2)cc1 ... Compound metabolized
NC(CO)(CO)CO.O=C(c1ccccc1)c1ccc2n1CCC2C(=O)O (configuration not stated) ... Compound NOT metabolized
O=C1[C@H](CC[C@H](O)c2ccc(F)cc2)[C@@H](c2ccc(O)cc2)N1c1ccc(F)cc1 ... Compound NOT metabolized
O=C1CN2Cc3c(ccc(Cl)c3Cl)N=C2N1 [ANAGRELIDE] ... Compound NOT metabolized
OCCOCCN1CCN(C2=Nc3ccccc3Sc3ccccc32)CC1 ... Compound NOT metabolized
COC1=C(OC)C(=O)C(CCCCCCCCCCO)=C(C)C1=O ... Compound metabolized
CC(C)c1nc(N(C)S(C)(=O)=O)nc(-c2ccc(F)cc2)c1/C=C/[C@@H](O)C[C@@H](O)CC(=O)[O-].CC(C)c1nc(N(C)S(C)(=O)=O)nc(-c2ccc(F)cc2)c1/C=C/[C@@H](O)C[C@@H](O)CC(=O)[O-].[Ca+2] ... Compound NOT metabolized
CN(C)CCOC(C)(c1ccccc1)c1ccccn1.O=C(O)CCC(=O)O (configuration not stated) [DOXYLAMINE SUCCINATE] ... Compound NOT metabolized
CC(=O)SCC(Cc1ccccc1)C(=O)NCC(=O)OCc1ccccc1 (configuration not stated) ... Compound metabolized
CCC(=O)NCC[C@@H]1CCc2ccc3c(c21)CCO3 ... Compound NOT metabolized

Input: Bench note: what Bacterial Biotransformation did CCCCC(=O)N(Cc1ccc(-c2ccccc2-c2nnn[nH]2)cc1)[C@H](C(=O)O)C(C)C show?
Output: Compound NOT metabolized

Input: Now the same for CCN(CC)CC#CCOC(=O)C(O)(c1ccccc1)C1CCCCC1.Cl (configuration not stated) [OXYBUTYNIN CHLORIDE]
Output: Compound NOT metabolized

Input: Moving on to the next molecule: CC(=O)OCC(CCn1cnc2cnc(N)nc21)COC(C)=O
Output: Compound metabolized

Input: Also, CCN(CC)CCNC(=O)c1ccc(NC(C)=O)cc1 [ACECAINIDE] please.
Output: Compound NOT metabolized

Input: CN1CCC[C@@H]1CCO[C@](C)(c1ccccc1)c1ccc(Cl)cc1.O=C(O)/C=C/C(=O)O [CLEMASTINE FUMARATE] ?
Output: Compound NOT metabolized

Input: What about this molecule? N#Cc1ccc2c(c1)N(CCCN1CCC(O)CC1)c1ccccc1S2
Output: Compound metabolized

Input: Also, COc1ccc2[nH]c([S+]([O-])Cc3ncc(C)c(OC)c3C)nc2n1 (configuration not stated) please.
Output: Compound metabolized
